Molecular target: glycine binding site of the NMDA receptor channel (Rattus norvegicus)
Construct: from tissue; host or cells: rat brain cortex and hippocampus membrane homogenate
Experiment: Receptor binding, displacement of (3H)-MDL 105.519 on rat cerebral membrane homogenates
Conditions: 10 μmol/l test substance; 1 nmol/l (3H)-MDL 105.519; read-out: Displacement (%, 10 μmol/l) of radioactive ligand from specific binding
READOUT KIND: inhibition at 10 µM (%)
Quick reminder: number only, in %, skip the unit.

Answer with reported inhibition at 10 µM of Cc1cccc(C2CC(C(=O)O)Nc3c(Cl)cc(F)cc32)c1 (centres unmarked)
79

Answer with reported inhibition at 10 µM of CCOC(=O)C1CC(c2cccc(C)c2)c2c(Cl)cc(Cl)cc2N1 (centres unmarked)
21

Answer with reported inhibition at 10 µM of COc1ccc(C2c3cc(Oc4ccccc4)ccc3NC(C(=O)O)C2C)cc1 (centres unmarked)
96

Answer with reported inhibition at 10 µM of CCOC(=O)C1CC(c2cccc(Cl)c2)c2c(Cl)cc(Cl)cc2N1 (centres unmarked)
32

Answer with reported inhibition at 10 µM of CCOC(=O)C1Nc2c(Cl)cc(F)cc2C(c2ccc(OC)cc2)C1c1ccc(OC)cc1 (centres unmarked)
33

----------
For each entry below, report its % inhibition of formalin-induced nociception value.
System: formalin-induced nociception
Experiment: Formalin test, rat (second/late phase)
Format: in vivo
Conditions: i.p., 21.5 mg/kg, late phase
Quick reminder: number only, in %, skip the unit.

Retrieve % inhibition of formalin-induced nociception on formalin-induced nociception; query CCOC(=O)C1CC(c2ccccc2F)c2c(Cl)cc(Cl)cc2N1 (stereo not drawn)
82.6

Retrieve % inhibition of formalin-induced nociception on formalin-induced nociception; query CCOC(=O)C1CC(c2ccccc2Cl)c2c(Cl)cc(Cl)cc2N1 (stereo not drawn)
69.0

Retrieve % inhibition of formalin-induced nociception on formalin-induced nociception; query CCOC(=O)C1CC(c2cccc(Cl)c2)c2c(Cl)cc(Cl)cc2N1 (stereo not drawn)
53.1

Retrieve % inhibition of formalin-induced nociception on formalin-induced nociception; query CCOC(=O)C1Nc2cc(Cl)cc(Cl)c2C2C=CCC12 (stereo not drawn)
88.3

Retrieve % inhibition of formalin-induced nociception on formalin-induced nociception; query O=C(O)C1Nc2cc(Cl)cc(Cl)c2C2C=CCC12 (stereo not drawn)
64.5

Retrieve % inhibition of formalin-induced nociception on formalin-induced nociception; query CCOC(=O)C1CC(c2ccc(Cl)cc2)c2c(Cl)cc(Cl)cc2N1 (stereo not drawn)
21.9

----------
For each entry below, report its inhibition at 10 µM value.
Target: glycine binding site of the NMDA receptor channel (Rattus norvegicus, UniProt P35439)
Construct: from tissue; host or cells: rat brain cortex and hippocampus membrane homogenate
Assay: Receptor binding, displacement of (3H)-MDL 105.519 on rat cerebral membrane homogenates
Settings: 10 μmol/l test substance; 1 nmol/l (3H)-MDL 105.519; read-out: Displacement (%, 10 μmol/l) of radioactive ligand from specific binding
Quick reminder: number only, in %, skip the unit.

Answer with reported inhibition at 10 µM of CCOC(=O)C1Nc2cc(Cl)cc(Cl)c2C2CCCC12 (stereo not drawn) [Example 59]
14

Answer with reported inhibition at 10 µM of O=C(O)C1CC(c2ccc(Br)cc2)c2c(Cl)cc(Cl)cc2N1 (stereo not drawn) [Example 40]
70

Answer with reported inhibition at 10 µM of CCOC(=O)C1CC(c2ccc(F)cc2)c2c(Cl)cc(Cl)cc2N1 (stereo not drawn) [Example 30]
32

Answer with reported inhibition at 10 µM of Cc1cc(C)cc(C2CC(C(=O)O)Nc3cc(Cl)cc(Cl)c32)c1 (stereo not drawn) [Example 102]
61

Answer with reported inhibition at 10 µM of O=C(O)C1CC(c2ccccc2)c2c(Cl)cc(Cl)cc2N1 (stereo not drawn) [Example 15]
75

Answer with reported inhibition at 10 µM of O=C(O)C1CC(c2ccccc2Br)c2cc(Br)cc(Cl)c2N1 (stereo not drawn) [Example 92]
62

Answer with reported inhibition at 10 µM of O=C(O)C1Nc2cc(Cl)cc(Cl)c2C2c3ccccc3CC12 (stereo not drawn) [Example 101]
98

Answer with reported inhibition at 10 µM of CCOC(=O)C1CC(c2cccc(C(F)(F)F)c2)c2c(Cl)cc(Cl)cc2N1 (stereo not drawn) [Example 41]
38

Answer with reported inhibition at 10 µM of O=C(O)C1Nc2cc(Cl)cc(Cl)c2C2c3ccccc3CCC12 (stereo not drawn) [Example 100]
80
